# IC50 values compiled below
target: T1, human LIGHT (TNFSF14), full length, membrane-bound (214E allele) (human, UniProt O43557 1-240); assay: competition with biotin-HVEM:Fc, HEK293FF LIGHT cells, flow cytometry
T1 construct: also called membrane LIGHT; human membrane LIGHT
T1 sequence (O43557 whole entry K214E): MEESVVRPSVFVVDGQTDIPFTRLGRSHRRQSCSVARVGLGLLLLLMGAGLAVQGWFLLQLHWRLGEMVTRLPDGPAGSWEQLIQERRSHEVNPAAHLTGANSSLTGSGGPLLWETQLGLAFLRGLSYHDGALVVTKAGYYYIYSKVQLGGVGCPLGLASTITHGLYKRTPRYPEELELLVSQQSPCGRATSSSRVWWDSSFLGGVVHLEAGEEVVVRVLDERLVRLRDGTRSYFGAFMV
Respond numerically; units are nM and should not be typed.

The cases that follow already have their IC50 on record.
{"binder": "3A07 (antibody, human IgG4, V domains shown, chimeric human IgG4 (S-to-P, L-to-E at 248), human CL; also called Parental 3A07) VH: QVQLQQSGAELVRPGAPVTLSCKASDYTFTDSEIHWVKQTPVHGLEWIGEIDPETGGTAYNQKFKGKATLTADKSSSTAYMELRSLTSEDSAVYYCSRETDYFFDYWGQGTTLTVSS VL: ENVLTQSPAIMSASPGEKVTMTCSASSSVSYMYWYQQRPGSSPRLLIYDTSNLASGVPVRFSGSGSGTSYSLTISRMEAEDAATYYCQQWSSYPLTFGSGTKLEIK", "measValue": 2.5}
{"binder": "2B11 (antibody, human IgG4, V domains shown, chimeric human IgG4 (S-to-P, L-to-E at 248), human CL; also called Parental 2B11) VH: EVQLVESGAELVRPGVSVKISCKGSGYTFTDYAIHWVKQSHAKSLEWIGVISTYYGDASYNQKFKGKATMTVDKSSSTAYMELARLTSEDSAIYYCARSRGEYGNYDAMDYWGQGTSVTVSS VL: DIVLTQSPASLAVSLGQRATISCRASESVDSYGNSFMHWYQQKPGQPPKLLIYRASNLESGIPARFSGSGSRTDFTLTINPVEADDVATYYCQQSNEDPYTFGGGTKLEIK", "measValue": 2.9}

Entry 3E09 (antibody, V domains shown, chimeric human IgG4 (S-to-P, L-to-E at 248), human CL; also called Parental 3E09) VH: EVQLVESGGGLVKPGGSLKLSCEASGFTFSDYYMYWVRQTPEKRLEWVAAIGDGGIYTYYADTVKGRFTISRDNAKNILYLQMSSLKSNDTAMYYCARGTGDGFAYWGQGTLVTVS VL: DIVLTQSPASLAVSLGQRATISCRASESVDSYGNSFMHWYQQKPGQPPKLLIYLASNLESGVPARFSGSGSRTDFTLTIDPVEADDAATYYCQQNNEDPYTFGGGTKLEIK : reported IC50 = ?
36.6
